- Test system: SK-MEL-5 melanoma
- experiment summary: NCI tumour cell line growth inhibition, 48 h
quantity name: TGI

1) c1cc2c(s1)-c1sccc1C21OCCO1 | > 100 µM

In plain terms, [N-]=[N+]=NC1OC(=O)C(Cl)=C1N=P(c1ccccc1)(c1ccccc1)c1ccccc1 (stereo not drawn) has a documented TGI of > 10 µM

In plain terms, O=C(O)c1ccc(NCn2nc(-c3ccccc3O)oc2=S)cc1 has a documented TGI of > 100 µM

====

Entries and their measured TGI follow.
- Tested on: HL-60(TB) leukemia
- experiment summary: NCI tumour cell line growth inhibition, 48 h

Example results:
1) CCOC(=O)C1=C(O)C2C3CC4C2C(O)=C(C(=O)OCC)C2C1C3C42 (configuration not stated) | > 100 µM
2) CC1=Nc2c(ccc3c2C(=O)c2ccccc2C3=O)NC(c2cccc3c2CCC3)C1 (configuration not stated) | > 100 µM
3) [C](#Cc1ccccc1)[Hg][C]#Cc1ccccc1 | > 100 µM
4) CC1(C)OC2[C@@H](CO[C@@]3([C@@H](O)CCO)OC(C)(C)O[C@@H]23)O1 (some centres not stated) | > 100 µM
5) CS(=O)(=O)c1nc(-c2cc3c(c(S(C)(=O)=O)n2)CCCC3)cc2c1CCCCC2 | > 100 µM
6) NCCSSCCN | > 100 µM
7) CC[n+]1oc(C(=O)c2ccc(Cl)cc2)c(-c2ccccc2)c1-c1ccccc1.[Cl][Fe]([Cl])([Cl])[Cl] | > 100 µM
8) COC/C=C\COC | > 100 µM
9) C#C/C=C\CCCC/C=C\C#CC#CCCCC#CC#C[C@H](COS(=O)(=O)O)OS(=O)(=O)O | > 100 µM
10) COc1cc2c(cc1OC)C(=O)N(c1ccc(O)cc1)C2=O | > 100 µM

Hey, HL-60(TB) leukemia data for OC1(c2ccc(-c3ccccc3)cc2)c2ccccc2C2=NCCN21 (configuration not stated) : TGI came out at > 100 µM

Hey, HL-60(TB) leukemia data for CC(=O)Nc1ccc(C(=O)NN2C(=O)C(Cl)/C2=C/c2ccco2)cc1 (configuration not stated) : TGI came out at > 100 µM

====

Entries and their measured TGI follow.
- System: SW-620 colon
- experiment summary: NCI tumour cell line growth inhibition, 48 h

1) CC1=Nc2c(ccc3c2C(=O)c2ccccc2C3=O)NC(c2cccc3c2CCC3)C1 (stereo not given) | > 100 µM

In plain terms, O=C(/C=C/c1ccc(-c2ccccc2)cc1)NCc1ccc(C(=O)NCc2ccccc2)cc1 has a documented TGI of > 100 µM

In plain terms, O=S(=O)(O)c1cc(N=Nc2c(O)ccc3ccccc23)ccc1/C=C/c1ccc(N=Nc2c(O)ccc3ccccc23)cc1S(=O)(=O)O has a documented TGI of > 100 µM

In plain terms, CCN(CC)CCCNc1ccc2nc(C)n3c4ccc(O)cc4c(=O)c1c23 has a documented TGI of 14.9 µM

In plain terms, CS(=O)(=O)CCNCc1cc(-c2cc3c(Nc4ccc(OCc5cccc(F)c5)c(Cl)c4)ncnc3s2)cs1 has a documented TGI of > 25 µM

====

- System: KM20L2 colon
- experiment summary: NCI tumour cell line growth inhibition, 48 h
Entries and their measured TGI follow.

Example results:
1. CC(Oc1ccc2c(-c3ccccc3)cc(=O)oc2c1)C(=O)O (stereo not drawn) | > 100 µM
2. N/N=C1\C(=O)N(C2CCCCCC2)C(=O)C1C(=O)NC1CCCCCC1 (stereo not drawn) | 38.1 µM
3. CCC(=O)c1c(NOC2OCC(OC(C)=O)C(OC(C)=O)C2OC(C)=O)nc(OC)n(C)c1=O (stereo not drawn) | > 100 µM

In plain terms, CCOc1ccc2[nH]c3c(C)c4ccncc4c(C)c3c2c1 has a documented TGI of 2.56 µM

In plain terms, O=C1CC2CC3OC3[C@H]3c4cc5c(cc4C(=O)N1C23)OCO5 (stereo partly drawn) has a documented TGI of > 100 µM

In plain terms, CC(C)(C)c1cc(C(O)(C(F)(F)F)C(F)(F)F)c2c(c1)C(C(F)(F)F)(C(F)(F)F)OC(C)(C(C)(C)C)N2 (stereo not drawn) has a documented TGI of > 100 µM

In plain terms, C=C(CC(NC(=O)c1ccc(C(CC)Cc2cnc3nc(N)nc(N)c3n2)cc1)C(=O)O)C(=O)O (stereo not drawn) has a documented TGI of > 100 µM

In plain terms, COc1ccc(C(=O)O[C@H]2[C@@H]3C=CO[C@@H](OC4OC(CO)C(O)C(O)C4O)[C@@H]3[C@@]3(CO)O[C@@H]23)cc1O (stereo partly drawn) has a documented TGI of > 100 µM

====

- Test system: NCI-H522 lung
- experiment summary: NCI tumour cell line growth inhibition, 48 h
quantity name: TGI

Example results:
1. O=C(O)CCS/C(=C\C(SCCC(=O)O)c1ccc(Cl)cc1)c1ccc(Cl)cc1 (stereo not drawn) | > 100 µM
2. [N-]=[N+]=NC1OC(=O)C(Cl)=C1N=P(c1ccccc1)(c1ccccc1)c1ccccc1 (stereo not drawn) | > 10 µM

Hey, NCI-H522 lung data for CCC1(N=[N+]=[N-])C(=O)c2ccccc2N(C)C1=O (stereo not drawn) : TGI came out at > 100 µM

Hey, NCI-H522 lung data for Nc1nc(Cl)c(N)c(NCC2(CO)CC2)n1 : TGI came out at > 100 µM

Hey, NCI-H522 lung data for C=C1C(=O)O[C@H]2C[C@@]3(COC(C)=O)C=COC=C(COC(=O)C(C)C)C3CC12 (stereo partly drawn) : TGI came out at > 100 µM

Hey, NCI-H522 lung data for Cc1ccccc1OC(C)C(=O)NN1C(=O)CSC1c1ccc(Cl)cc1 (stereo not drawn) : TGI came out at > 29.4 µM

Hey, NCI-H522 lung data for NC1=C(NC(=O)Cc2ccccc2F)C(=O)c2ccccc2C1=O : TGI came out at > 100 µM

Hey, NCI-H522 lung data for CC(C)(C)c1cc(C(O)(C(F)(F)F)C(F)(F)F)c2c(c1)C(C(F)(F)F)(C(F)(F)F)OC(C)(C(C)(C)C)N2 (stereo not drawn) : TGI came out at 5.24 µM

Hey, NCI-H522 lung data for C#Cc1cccc(N2C(=O)c3c(c(-c4ccccc4)c(-c4ccc(Cc5ccc(-c6c(-c7ccccc7)c7c(c(-c8ccccc8)c6-c6ccccc6)C(=O)N(c6cccc(C#C)c6)C7=O)cc5)cc4)c(-c4ccccc4)c3-c3ccccc3)C2=O)c1 : TGI came out at > 100 µM

Hey, NCI-H522 lung data for O=C(/C=C/c1ccccc1)C(Br)C(Br)c1ccccc1 (stereo not drawn) : TGI came out at 2.31 µM

====

- System: SR leukemia
- experiment summary: NCI tumour cell line growth inhibition, 48 h
Entries and their measured TGI follow.

In plain terms, COc1ccc(C(c2c(O)c3ccccc3n(-c3ccccc3)c2=O)c2c(O)c3ccccc3n(-c3ccccc3)c2=O)cc1 has a documented TGI of > 100 µM

In plain terms, COc1cc2ncn(-c3cc(OCc4ccccc4C(F)(F)F)c(C(=O)N(C)C)s3)c2cc1OC has a documented TGI of > 25 µM

In plain terms, O=C1CC(c2ccccc2)C2(C(=O)NC(=S)NC2=O)C(c2ccccc2)C1 (configuration not stated) has a documented TGI of > 75 µM

In plain terms, [N-]=[N+]=NC(c1cn(C2CC(O)C(CO)O2)c(=O)[nH]c1=O)C(Br)Br (configuration not stated) has a documented TGI of > 100 µM

In plain terms, CC1=Nc2c(ccc3c2C(=O)c2ccccc2C3=O)NC(c2cccc3c2CCC3)C1 (configuration not stated) has a documented TGI of > 100 µM

In plain terms, COC(=O)C1Cc2cc3c(cc2C1=O)CCCC3 (configuration not stated) has a documented TGI of > 100 µM

In plain terms, C=C(CC(NC(=O)c1ccc(C(CC)Cc2cnc3nc(N)nc(N)c3n2)cc1)C(=O)O)C(=O)O (configuration not stated) has a documented TGI of > 100 µM

====

- Tested on: SNB-19 CNS
- experiment summary: NCI tumour cell line growth inhibition, 48 h
quantity name: TGI

1) Cc1[nH]nc(C(F)(F)F)c1N=NN(C)C | 28.8 µM
2) CN(C)CCNc1ccc(CO)c2sc3ccc(O)cc3c(=O)c12 | 11.9 µM
3) C=C1C(=O)OC2C/C(C)=C/CC/C(C)=C/CCC3(COC(C)=O)OC3CC12 (stereo not drawn) | 31.4 µM
4) O=C1/C(=C\c2cccc(Oc3ccccc3)c2)SC(c2ccccc2)N1c1ccccc1 (stereo not drawn) | > 100 µM
5) O=C1CC2CC3OC3[C@H]3c4cc5c(cc4C(=O)N1C23)OCO5 (stereo partly drawn) | > 100 µM

In plain terms, CCOC(=O)c1[nH]c(-c2[nH]c(-c3[nH]c(-c4[nH]c(C(=O)OCC)c(C)c4C(=O)OCC)c(C(=O)OCC)c3C)c(C)c2C(=O)OCC)c(C(=O)OCC)c1C has a documented TGI of > 100 µM

In plain terms, CCN1CCC(O)(c2ccc(Oc3ccc(F)cc3)cc2)C(C(=O)c2ccc(Oc3ccc(F)cc3)cc2)C1 (stereo not drawn) has a documented TGI of 29.6 µM
